B1: Protein PTHB1 (Homo sapiens), Q3SYG4 (parent)
chain: MSLFKARDWWSTILGDKEEFDQGCLCLANVDNSGNGQDKIIVGSFMGYLRIFSPHPAKTGDGAQAEDLLLEVDLRDPVLQVEVGKFVSGTEMLHLAVLHSRKLCVYSVSGTLGNVEHGNQCQMKLMYEHNLQRTACNMTYGSFGGVKGRDLICIQSMDGMLMVFEQESYAFGRFLPGFLLPGPLAYSSRTDSFLTVSSCQQVESYKYQVLAFATDADKRQETEQQKLGSGKRLVVDWTLNIGEQALDICIVSFNQSASSVFVLGERNFFCLKDNGQIRFMKKLDWSPSCFLPYCSVSEGTINTLIGNHNNMLHIYQDVTLKWATQLPHIPVAVRVGCLHDLKGVIVTLSDDGHLQCSYLGTDPSLFQAPNVQSRELNYDELDVEMKELQKIIKDVNKSQGVWPMTEREDDLNVSVVVSPNFDSVSQATDVEVGTDLVPSVTVKVTLQNRVILQKAKLSVYVQPPLELTCDQFTFEFMTPDLTRTVSFSVYLKRSYTPSELEGNAVVSYSRPTDRNPDGIPRVIQCKFRLPLKLICLPGQPSKTASHKITIDTNKSPVSLLSLFPGFASQSDDDQVNVMGFHFLGGARITVLASKTSQRYRIQSEQFEDLWLITNELILRLQEYFEKQGVKDFACSFSGSIPLQEYFELIDHHFELRINGEKLEELLSERAVQFRAIQRRLLARFKDKTPAPLQHLDTLLDGTYKQVIALADAVEENQGNLFQSFTRLKSATHLVILLIALWQKLSADQVAILEAAFLPLQEDTQELGWEETVDAAISHLLKTCLSKSSKEQALNLNSQLNIPKDTSQLKKHITLLCDRLSKGGRLCLSTDAAAPQTMVMPGGCTTIPESDLEERSVEQDSTELFTNHRHLTAETPRPEVSPLQGVSE
partner: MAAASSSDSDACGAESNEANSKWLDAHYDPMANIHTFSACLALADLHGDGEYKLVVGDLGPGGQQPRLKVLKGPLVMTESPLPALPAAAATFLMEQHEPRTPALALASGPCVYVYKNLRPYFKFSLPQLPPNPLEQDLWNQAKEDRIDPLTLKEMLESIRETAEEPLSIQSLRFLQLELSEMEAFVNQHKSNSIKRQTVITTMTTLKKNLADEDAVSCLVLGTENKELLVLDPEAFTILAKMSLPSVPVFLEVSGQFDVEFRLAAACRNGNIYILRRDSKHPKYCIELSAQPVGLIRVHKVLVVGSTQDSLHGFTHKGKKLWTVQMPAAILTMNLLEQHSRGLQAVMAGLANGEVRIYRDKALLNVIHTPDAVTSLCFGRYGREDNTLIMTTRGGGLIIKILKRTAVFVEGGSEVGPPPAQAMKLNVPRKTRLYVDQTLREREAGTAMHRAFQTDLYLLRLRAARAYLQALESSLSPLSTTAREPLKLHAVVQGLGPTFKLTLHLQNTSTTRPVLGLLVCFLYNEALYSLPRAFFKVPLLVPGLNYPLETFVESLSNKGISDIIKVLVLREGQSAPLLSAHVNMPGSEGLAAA

variants of: B1; conditions: with bbs1_human BBS1, Q8NFJ9
endpoint name: effect of a mutation on the interaction

Previously resolved entries follow.
I519A : with no effect
P530K : with no effect
L452E : with no effect
K547A : with no effect
L616A : with no effect

Look at this variant and give its reported effect of a mutation on the interaction. G842E
with no effect

Same lookup for F724A , please.
with no effect

Same lookup for L465K , please.
with no effect

Same lookup for E431A , please.
with no effect

Same lookup for E878A , please.
with no effect

Same lookup for T697E , please.
with no effect
